Parameter OD450 nm: see the listing below.
Molecular target: T1, human GPC3-His protein (human, UniProt P51654 25-559)
T1 construct: Bought protein; also called human GPC3 protein; not shown: His tag
Test: ELISA, coated human GPC3, antibody 1 nM;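 further: antigen coated at 1 µg/mL on 96-well plates, antibody bound for 2 h at 37 °C, detected with HRP-labeled secondary antibody and TMB, absorbance read at 450 nm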
Provide only the numeric value, understood in OD450.

// worked examples, OD450 nm included
Prompt: Query OD450 nm for F1.41.17 human-murine chimeric antibody (antibody, human IgG1, kappa, V domains shown) VH: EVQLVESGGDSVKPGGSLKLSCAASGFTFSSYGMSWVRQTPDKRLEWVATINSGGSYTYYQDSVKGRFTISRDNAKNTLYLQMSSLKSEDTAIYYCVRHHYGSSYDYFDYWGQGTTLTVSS VL: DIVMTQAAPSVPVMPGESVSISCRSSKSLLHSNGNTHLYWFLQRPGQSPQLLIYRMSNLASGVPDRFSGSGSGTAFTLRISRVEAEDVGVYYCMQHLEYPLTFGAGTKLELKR
Completion: 1.68

Prompt: Read the entry F2.23.8 human-murine chimeric antibody (antibody, human IgG1, kappa, V domains shown) VH: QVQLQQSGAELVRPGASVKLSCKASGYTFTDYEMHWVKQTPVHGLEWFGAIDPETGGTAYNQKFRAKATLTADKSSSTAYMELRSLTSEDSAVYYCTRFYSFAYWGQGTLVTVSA VL: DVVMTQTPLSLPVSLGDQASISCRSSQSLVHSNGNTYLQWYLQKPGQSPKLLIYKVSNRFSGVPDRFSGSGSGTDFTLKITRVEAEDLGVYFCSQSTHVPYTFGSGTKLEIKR and write its reported OD450 nm.
Completion: 2.16

Prompt: # return recorded OD450 nm for input F1.92.17 human-murine chimeric antibody (antibody, human IgG1, kappa, V domains shown) VH: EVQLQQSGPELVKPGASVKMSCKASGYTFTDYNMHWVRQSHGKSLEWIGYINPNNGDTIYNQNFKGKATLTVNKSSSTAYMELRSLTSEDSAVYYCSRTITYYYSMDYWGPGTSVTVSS VL: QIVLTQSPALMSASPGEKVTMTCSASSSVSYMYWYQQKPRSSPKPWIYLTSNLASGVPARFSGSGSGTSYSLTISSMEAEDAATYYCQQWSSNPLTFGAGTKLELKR
Completion: 0.68

Prompt: Given F1.136.7 human-murine chimeric antibody (antibody, human IgG1, kappa, V domains shown) VH: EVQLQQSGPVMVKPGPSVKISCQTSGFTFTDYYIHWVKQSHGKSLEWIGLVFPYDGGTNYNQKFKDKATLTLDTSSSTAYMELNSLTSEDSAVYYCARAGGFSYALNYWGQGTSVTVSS VL: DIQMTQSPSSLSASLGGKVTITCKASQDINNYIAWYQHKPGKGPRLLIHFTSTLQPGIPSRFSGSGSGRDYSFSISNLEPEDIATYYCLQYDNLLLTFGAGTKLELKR , respond with its OD450 nm.
Completion: 0.63

Prompt: Given the binder F3.38.7 human-murine chimeric antibody (antibody, human IgG1, kappa, V domains shown) VH: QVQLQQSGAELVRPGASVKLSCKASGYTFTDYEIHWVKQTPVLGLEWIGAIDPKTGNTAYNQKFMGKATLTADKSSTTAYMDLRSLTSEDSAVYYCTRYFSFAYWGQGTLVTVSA VL: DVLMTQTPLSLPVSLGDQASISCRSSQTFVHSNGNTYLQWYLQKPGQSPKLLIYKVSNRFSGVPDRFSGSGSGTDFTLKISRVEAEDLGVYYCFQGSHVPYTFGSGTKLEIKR , write its reported OD450 nm.
Completion: 2.18

Continuing:
Prompt: Supply OD450 nm value. Item: F2.92.1 human-murine chimeric antibody (antibody, human IgG1, kappa, V domains shown) VH: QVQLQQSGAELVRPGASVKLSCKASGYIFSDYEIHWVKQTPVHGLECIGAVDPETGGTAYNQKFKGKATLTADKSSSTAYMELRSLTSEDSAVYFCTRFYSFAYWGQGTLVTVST VL: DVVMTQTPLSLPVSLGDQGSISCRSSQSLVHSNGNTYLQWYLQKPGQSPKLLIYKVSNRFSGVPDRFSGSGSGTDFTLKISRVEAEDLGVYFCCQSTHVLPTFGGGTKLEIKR
Completion: 2.24

Prompt: Provide only the value of recorded OD450 nm for F3.81.19 human-murine chimeric antibody (antibody, human IgG1, kappa, V domains shown) VH: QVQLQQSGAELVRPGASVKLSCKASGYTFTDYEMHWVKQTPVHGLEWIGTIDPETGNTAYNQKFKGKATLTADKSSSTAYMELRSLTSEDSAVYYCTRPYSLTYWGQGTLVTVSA VL: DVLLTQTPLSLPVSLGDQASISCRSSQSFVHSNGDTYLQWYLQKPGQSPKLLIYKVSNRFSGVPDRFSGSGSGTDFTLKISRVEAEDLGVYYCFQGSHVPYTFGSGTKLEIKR
Completion: 2.04
